system: M14 melanoma; experiment: NCI-60 one-dose screen, 48 h (100 = growth as untreated, 0 = no growth, -100 = all killed); conditions: 10 µM unless noted
This is part of a sample that, as a whole, favours compounds with a hit. Of some 83,000 tested, about 20% had one in any assay.
Reported growth values are given for each entry in this list.
reported.metric: growth (%)

| compound | target.entity | reported.metric | result.number |
| --- | --- | --- | --- |
| COC1NC(Cl)=C(C#N)C(C#N)(C#N)C1(C)C (configuration not stated) | M14 melanoma | growth | 59.1 |
| C=CN(C)S(C)(=O)=O | M14 melanoma | growth | 28.8 |
| CCS(=O)(=O)OCCO[C@H]1Cc2cc3ccc(=O)oc3cc2OC1(C)C | M14 melanoma | growth | 104 |
| COc1ccc(Cn2cc3c(c2-c2ccccc2)CCc2cnoc2-3)cc1OC | M14 melanoma | growth | 30.5 |
| COc1cc2ncnc(-n3ncc4cc(NC(=O)Nc5ccc(Cl)c(C)c5)ccc43)c2cc1OC | M14 melanoma | growth | 79.3 |
| C/C(=C\c1ccc2ccccc2c1)[N+](=O)[O-] | M14 melanoma | growth | 22.4 |
| CC1=C(C)C[C@]2(C(=O)O[C@H]3CCCC[C@@H]32)[S@](=O)C1 | M14 melanoma | growth | 103 |
| O=C(Nc1ccc(-n2cc(-c3ccncc3)c(-c3ccc(Cl)c(O)c3)n2)cc1)Nc1ccc(Cl)c(C(F)(F)F)c1 | M14 melanoma | growth | -58.6 |
| CC(=O)NCCN | M14 melanoma | growth | 108 |
| CC1(C)NC(=S)NC1=O | M14 melanoma | growth | 98.5 |
| COc1ccc(C(O)(c2ccccc2)C(C(=O)O)c2ccccc2)cc1 (configuration not stated) | M14 melanoma | growth | 103 |
| CCC(CCCN1C(=O)c2ccccc2C1=O)Nc1cc(OC)cc2cccnc12 (configuration not stated) | M14 melanoma | growth | -100 |
| O=C(CN1CCN(c2cccc(Cl)c2)CC1)N1CCN(c2nnc(-c3ccc(Cl)cc3)c(-c3ccc(Cl)cc3)n2)CC1 | M14 melanoma | growth | 106 |
| O=C(/C=C1\C(=O)N(Cc2ccc([N+](=O)[O-])cc2)c2ccccc21)c1ccc(OCCN2CCCC2)cc1 | M14 melanoma | growth | 70.2 |
| COc1cccc(CNC(=O)c2cccc(C3CC(=O)c4c(cc(OC)c(OC)c4OC)O3)c2)c1 (configuration not stated) | M14 melanoma | growth | 41 |
| CCc1ccc(C(=Nc2ccc(N(C)C(=O)CN3CCN(C)CC3)cc2)c2c(O)[nH]c3ccc(C(=O)OC)cc23)cc1 | M14 melanoma | growth | -86.7 |
| COC(=O)c1ccc(C(=Nc2ccc(N(C)C(=O)CN3CCN(C)CC3)cc2)c2c(O)[nH]c3ccc(C(=O)OC)cc23)cc1 | M14 melanoma | growth | 28.7 |
| COC(=O)CC(=O)C(=O)OC | M14 melanoma | growth | 100 |
| O=C(O)c1ccc(-c2nn(-c3ccc(C(=O)O)cc3)cc2CNc2ccc(Br)cc2)cc1 | M14 melanoma | growth | 97.6 |
| NCCCOc1cc(Cl)ccc1NC(=O)c1cc2ccccc2cc1OCCCN | M14 melanoma | growth | -88.5 |
| O=C(Nc1cccc(Cn2c(=O)[nH]c3ccc(Oc4ncccn4)cc3c2=O)c1)c1cccc(F)c1 | M14 melanoma | growth | 78.6 |
| C=CCNCCC#N | M14 melanoma | growth | 101 |
